Experiment: Ex vivo biodistribution, MDAMB231 xenografts
Type: in vivo, NSG mice
Conditions: female, NSG, mouse, MDAMB231 tumor (xenograft), iv, 740 kBq, total radioactivity
reported metric: tissue uptake at 2 h (%ID/g)
Just the number please, in %ID/g, no unit attached.

*Q* Suppose we examine the compound CCCC[C@H]1C(=O)N(C)[C@@H](CCCC)C(=O)N[C@@H](CCCNC(=O)c2ccc(F)nc2)C(=O)N[C@H](C(=O)NCC(N)=O)CSCC(=O)N[C@@H](Cc2ccc(O)cc2)C(=O)N(C)[C@@H](C)C(=O)N[C@@H](CC(N)=O)C(=O)N2CCC[C@H]2C(=O)N[C@@H](Cc2c[nH]cn2)C(=O)N[C@@H](CC(C)C)C(=O)N2C[C@H](O)C[C@H]2C(=O)N[C@@H](Cc2c[nH]c3ccccc23)C(=O)N[C@@H](CO)C(=O)N[C@@H](Cc2cn(C)c3ccccc23)C(=O)N1C [[^18F]FPy-WL12] ; what tissue uptake at 2 h value has been reported?
*A* 2.15
